For each record, write down the corresponding DC50.
- Experimental System: Cbl-b (Homo sapiens)
- Construct: Cbl-b-HiBit KI Jurkat Cells were purchased from Promega; host or cells: Cbl-b-HiBiT knock-in Jurkat cells
- Sequence (Q13191 whole entry): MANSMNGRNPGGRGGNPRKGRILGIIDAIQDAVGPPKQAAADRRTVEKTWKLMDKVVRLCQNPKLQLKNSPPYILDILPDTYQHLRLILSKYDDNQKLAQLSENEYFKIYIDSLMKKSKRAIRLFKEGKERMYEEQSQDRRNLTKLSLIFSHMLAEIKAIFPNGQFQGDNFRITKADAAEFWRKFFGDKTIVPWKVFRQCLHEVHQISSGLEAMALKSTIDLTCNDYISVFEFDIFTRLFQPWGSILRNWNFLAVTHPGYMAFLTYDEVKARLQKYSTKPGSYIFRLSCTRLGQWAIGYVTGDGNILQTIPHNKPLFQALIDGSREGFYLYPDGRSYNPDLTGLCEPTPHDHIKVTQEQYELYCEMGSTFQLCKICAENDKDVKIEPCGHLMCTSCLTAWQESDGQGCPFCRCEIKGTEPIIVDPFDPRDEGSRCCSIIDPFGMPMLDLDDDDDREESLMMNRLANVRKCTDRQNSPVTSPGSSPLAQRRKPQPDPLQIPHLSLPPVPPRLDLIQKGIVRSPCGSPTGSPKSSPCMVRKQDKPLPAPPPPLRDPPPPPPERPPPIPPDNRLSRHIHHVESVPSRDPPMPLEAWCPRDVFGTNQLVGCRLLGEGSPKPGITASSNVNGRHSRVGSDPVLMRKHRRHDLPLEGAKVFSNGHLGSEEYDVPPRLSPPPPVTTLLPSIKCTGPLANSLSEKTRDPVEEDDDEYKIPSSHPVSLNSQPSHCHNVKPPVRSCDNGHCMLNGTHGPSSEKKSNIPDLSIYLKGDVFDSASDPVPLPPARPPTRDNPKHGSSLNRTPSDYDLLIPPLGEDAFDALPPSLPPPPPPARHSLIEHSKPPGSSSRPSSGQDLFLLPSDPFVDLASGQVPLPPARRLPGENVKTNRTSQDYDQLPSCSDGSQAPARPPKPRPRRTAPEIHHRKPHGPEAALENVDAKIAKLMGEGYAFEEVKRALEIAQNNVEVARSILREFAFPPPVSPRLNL
- Procedure Details: Cbl-b Degradation Method B (Nano-Glo HiBiT lytic detection)
- Type: cell-based
- Condition Description: Cbl-b-HiBit KI Jurkat Cells, incubated at least 6-24 hours; half maximal degradation; read-out: Cbl-b Degredation Method B IC50

Value lookup for DC50; key = CC1CC(CN2CC3(CCN(c4ccc5c(c4)C(=O)N(C4CCC(=O)NC4=O)C5=O)CC3)C2)CN(Cc2cc3c(c(C(F)(F)F)c2)CN(c2cccc(C4(Cc5nncn5C)COC4)c2)C3=O)C1 (stereo not shown) [Example 92]
> 500 nM

Value lookup for DC50; key = CC1CN(C[C@H]2CC[C@H](OC3CCN(c4ccc5c(c4F)CN(C4CCC(=O)NC4=O)C5=O)CC3)CC2)CCN1Cc1cc2c(c(C(F)(F)F)c1)CN(c1cccc([C@]3(Cc4nncn4C)C[C@@H](C#N)C3)c1)C2=O (stereo partly shown) [Example 204]
< 5 nM

Value lookup for DC50; key = CC1c2cc(N3CCC(CN4CCC5(CC4)CN(c4cc6c(c(C(F)(F)F)c4)CN(c4cccc(C7(Cc8nncn8C)COC7)c4)C6=O)C5)CC3)ccc2C(=O)N1C1CCC(=O)NC1=O (stereo not shown) [Example 138]
< 5 nM

Value lookup for DC50; key = Cc1cc(N2CCC(CN3CCC4(CC3)CN(c3cc5c(c(C(F)(F)F)c3)CN(c3cccc(C6(Cc7nncn7C)COC6)c3)C5=O)C4)CC2)c(F)c2c1C(=O)N(C1CCC(=O)NC1=O)C2 (stereo not shown) [Example 12]
< 5 nM

Value lookup for DC50; key = Cn1cnnc1CC1(c2cccc(N3Cc4c(cc(CN5CCC(CN6CCC(Oc7ccc8c(c7)C(=O)N(C7CCC(=O)NC7=O)C8=O)CC6)CC5)cc4C(F)(F)F)C3=O)c2)COC1 (stereo not shown) [Example 30]
> 500 nM

Value lookup for DC50; key = CC(C)n1c(=O)n(C2CCC(=O)NC2=O)c2cccc(N3CCC(O[C@H]4CC[C@H](CN5CCC6(CCN(Cc7cc8c(c(C(F)(F)F)c7)CN(c7cccc([C@]9(Cc%10nncn%10C)C[C@@H](C#N)C9)c7)C8=O)CC6)CC5)CC4)CC3)c21 (stereo partly shown) [Example 317]
< 5 nM

Value lookup for DC50; key = Cn1cnnc1CC1(c2cccc(N3Cc4c(cc(CN5CCN(c6ccc7c(c6)CN(C6CCC(=O)NC6=O)C7=O)CC5)cc4C(F)(F)F)C3=O)c2)COC1 (stereo not shown) [Example 41]
5 to 50 nM

Value lookup for DC50; key = CC1CC(CN2CCC(CC3CCN(c4ccc5c(c4)C(=O)N(C4CCC(=O)NC4=O)C5=O)CC3)CC2)CN(Cc2cc3c(c(C(F)(F)F)c2)CN(c2cccc(C4(Cc5nncn5C)COC4)c2)C3=O)C1 (stereo not shown) [Example 94]
< 5 nM

Value lookup for DC50; key = Cn1cnnc1CC1(c2cccc(N3Cc4c(cc(CN5CCC6(CC5)CCN(CC5CCN(c7ccc8c(c7)C(=O)N(C7CCC(=O)NC7=O)C8=O)CC5)CC6)cc4C(F)(F)F)C3=O)c2)COC1 (stereo not shown) [Example 45]
> 500 nM

Value lookup for DC50; key = Cn1cnnc1CC1(c2cccc(N3Cc4c(cc(N5CC(C6CCN(c7ccc8c(c7)C(=O)N(C7CCC(=O)NC7=O)C8=O)CC6)C5)cc4C(F)(F)F)C3=O)c2)COC1 (stereo not shown) [Example 129]
> 500 nM

Attribution: patent US20260184710A1
